TESTED TARGET: BRD4(1) (Homo sapiens, UniProt O60885)
PROCEDURE DETAILS: BRD4(1) ligand-displacement AlphaScreen
Assay type: binding
Parameters: substituting protein and biotin-probe components for BRD4(1) protein at 20 nM final; His tag (inferred from Ni-coated acceptor beads)
READOUT LABEL: pIC50
Please note pIC50 is a logarithmic value: minus log10 of concentration in mol/L. Answer with that number alone.

Reference set, count: 3
| COMPOUND | TESTED TARGET | pIC50 |
| --- | --- | --- |
| COc1cc(-c2cn(C)c(=O)c3cc(C(=N)NC4CCS(=O)(=O)CC4)sc23)ccc1OCC(=O)NCCCCCCCCNc1cccc2c1C(=O)N(C1CCC(=O)NC1=O)C2=O (stereo not drawn) [Compound I-5] | BRD4(1) (Homo sapiens, UniProt O60885) | 5.81 |
| COc1cc(-c2cn(C)c(=O)c3cc(C(=N)NC4CCS(=O)(=O)CC4)sc23)ccc1OCC(=O)N1CCC(C2CCN(C(=O)COc3cccc4c3C(=O)N(C3CCC(=O)NC3=O)C4=O)CC2)CC1 (stereo not drawn) [Compound I-7] | BRD4(1) (Homo sapiens, UniProt O60885) | 5.82 |
| COc1cc(-c2cn(C)c(=O)c3cc(C(=N)NC4CCS(=O)(=O)CC4)sc23)ccc1OCC(=O)NCCCCCCCCNc1ccc2c(c1)C(=O)N(C1CCC(=O)NC1=O)C2=O (stereo not drawn) [Compound I-9] | BRD4(1) (Homo sapiens, UniProt O60885) | 5.95 |

Here's the next entry for you.
Query :: Which value of pIC50 has been reported for COc1cc(-c2cn(C)c(=O)c3cc(C(=N)NC4CCS(=O)(=O)CC4)sc23)ccc1OCC(=O)NCCCCCCCCNC(=O)COc1cccc2c1C(=O)N(C1CCC(=O)NC1=O)C2=O (stereo not drawn) [Compound I-2] in the records?
Result :: 5.47

====

TESTED TARGET: BRD9:CRBN-DDB1 protein complex (Homo sapiens, UniProt Q96SW2+Q9H8M2)
Sequence (Q9H8M2 136-240 limits assumed): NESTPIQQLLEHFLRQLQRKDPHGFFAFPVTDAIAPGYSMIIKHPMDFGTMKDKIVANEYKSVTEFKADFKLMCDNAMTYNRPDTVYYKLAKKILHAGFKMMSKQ
Sequence (Q96SW2 whole entry): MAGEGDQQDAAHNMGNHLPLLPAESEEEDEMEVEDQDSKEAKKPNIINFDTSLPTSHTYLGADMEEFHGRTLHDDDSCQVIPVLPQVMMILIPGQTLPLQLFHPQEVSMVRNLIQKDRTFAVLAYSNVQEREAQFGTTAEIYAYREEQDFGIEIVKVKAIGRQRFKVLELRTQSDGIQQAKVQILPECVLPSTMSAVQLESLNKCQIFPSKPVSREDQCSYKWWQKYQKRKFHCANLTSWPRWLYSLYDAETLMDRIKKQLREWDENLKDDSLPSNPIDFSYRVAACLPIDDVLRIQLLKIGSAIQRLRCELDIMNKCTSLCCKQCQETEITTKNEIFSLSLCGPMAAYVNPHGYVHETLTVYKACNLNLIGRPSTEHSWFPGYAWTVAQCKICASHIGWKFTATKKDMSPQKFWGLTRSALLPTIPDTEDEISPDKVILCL
Sequence (Q16531 whole entry partner): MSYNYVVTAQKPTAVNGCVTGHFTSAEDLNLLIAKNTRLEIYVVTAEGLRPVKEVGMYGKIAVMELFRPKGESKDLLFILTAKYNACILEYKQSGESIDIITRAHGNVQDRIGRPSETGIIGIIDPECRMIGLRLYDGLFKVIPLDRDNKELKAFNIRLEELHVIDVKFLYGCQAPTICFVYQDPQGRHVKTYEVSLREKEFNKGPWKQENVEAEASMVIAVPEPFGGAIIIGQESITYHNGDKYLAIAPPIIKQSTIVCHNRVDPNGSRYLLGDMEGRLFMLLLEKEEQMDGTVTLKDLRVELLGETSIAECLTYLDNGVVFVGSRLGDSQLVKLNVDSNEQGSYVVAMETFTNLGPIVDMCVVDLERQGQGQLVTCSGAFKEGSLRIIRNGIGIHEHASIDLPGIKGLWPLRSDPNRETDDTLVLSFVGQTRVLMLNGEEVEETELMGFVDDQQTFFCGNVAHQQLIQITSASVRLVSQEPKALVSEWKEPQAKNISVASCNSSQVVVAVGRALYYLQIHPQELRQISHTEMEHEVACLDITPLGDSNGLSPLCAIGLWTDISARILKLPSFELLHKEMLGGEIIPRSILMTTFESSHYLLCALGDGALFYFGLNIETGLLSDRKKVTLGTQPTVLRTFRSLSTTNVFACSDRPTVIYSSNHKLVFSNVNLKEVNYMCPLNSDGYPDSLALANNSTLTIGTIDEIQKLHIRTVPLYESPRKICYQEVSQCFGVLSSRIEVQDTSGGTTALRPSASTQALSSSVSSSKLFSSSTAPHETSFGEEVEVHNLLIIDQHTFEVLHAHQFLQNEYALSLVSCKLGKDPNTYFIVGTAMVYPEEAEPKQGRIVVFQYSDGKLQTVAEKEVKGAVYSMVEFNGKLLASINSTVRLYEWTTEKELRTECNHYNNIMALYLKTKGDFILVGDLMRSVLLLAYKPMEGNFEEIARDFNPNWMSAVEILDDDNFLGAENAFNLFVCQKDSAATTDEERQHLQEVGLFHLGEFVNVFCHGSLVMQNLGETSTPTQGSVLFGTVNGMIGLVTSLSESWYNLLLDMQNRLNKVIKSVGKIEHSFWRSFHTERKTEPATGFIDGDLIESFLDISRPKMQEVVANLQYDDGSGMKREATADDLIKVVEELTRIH
PROCEDURE DETAILS: BRD9:CRBN-DDB1 dimerization assay (luminescence)
STUDY CONDITIONS: luminescence detection of dimerization assay
Entries and their measured BRD9:CRB9-DDB1 AUC follow.
I only need the number, thanks.

Query :: # query: BRD9:CRB9-DDB1 AUC | item COc1cc(-c2cn(C)c(=O)c3cnccc23)cc(OC)c1CN(C)CC(=O)NCCCCCCCCNC(=O)COc1cccc2c1C(=O)N(C1CCC(=O)NC1=O)C2=O (stereo not drawn) | system: BRD9:CRBN-DDB1 protein complex (Homo sapiens, UniProt Q96SW2+Q9H8M2)
Result :: 58563

Query :: # query: BRD9:CRB9-DDB1 AUC | item COc1cc(-c2cn(C)c(=O)c3cc(C(=N)NC4CCS(=O)(=O)CC4)sc23)ccc1OCC(=O)NCCCOCCOCCOCCCNC(=O)COc1cccc2c1C(=O)N(C1CCC(=O)NC1=O)C2=O (stereo not drawn) | system: BRD9:CRBN-DDB1 protein complex (Homo sapiens, UniProt Q96SW2+Q9H8M2)
Result :: 50182

Query :: # query: BRD9:CRB9-DDB1 AUC | item COc1cc(-c2cn(C)c(=O)c3cc(C(=N)NC4CCS(=O)(=O)CC4)sc23)ccc1OCC(=O)NCCCCCCCCNc1ccc2c(c1)C(=O)N(C1CCC(=O)NC1=O)C2=O (stereo not drawn) | system: BRD9:CRBN-DDB1 protein complex (Homo sapiens, UniProt Q96SW2+Q9H8M2)
Result :: 46614

The reported measurements were obtained from patent US11285218B2.
